Reference source for all entries: ChEMBL document CHEMBL3885861

# Species on record: Rattus norvegicus
# assay.name: Open TG-GATES - Regimen: Daily Repeat
# Type: toxicity, organism-based, Sprague-Dawley
# Set-up: regimen Daily Repeat, gender Male, age 6 weeks
# measurement.setup: in vivo, po, 0 mg/kg, […], tissue Plasma, route gavage, dose level Control, time 7 day
Give measured gamma-GTP for each item. Keep answers brief.
Report as a plain number; the unit IU/L is understood.

Q: Please give the measured gamma-GTP for this compound: C[C@](N)(Cc1ccc(O)c(O)c1)C(=O)O [METHYLDOPA]
Result: 1.2

Q: Request: CC(=N)S [THIOACETAMIDE]
Result: 1

Q: Request: CCC(C)(C)C(=O)O[C@H]1C[C@@H](C)C=C2C=C[C@H](C)[C@H](CC[C@@H]3C[C@@H](O)CC(=O)O3)[C@H]21 [SIMVASTATIN]
Result: 1.2

Q: Request: CC(C)(S)[C@@H](N)C(=O)O [PENICILLAMINE]
Result: 0.8

Q: Request: O=C(N[C@H](CO)[C@H](O)c1ccc([N+](=O)[O-])cc1)C(Cl)Cl [CHLORAMPHENICOL]
Result: 1.2

====

# Species: Rattus norvegicus
# assay.name: Open TG-GATES - Regimen: Daily Repeat
# Type: toxicity, organism-based, Sprague-Dawley
# Set-up: regimen Daily Repeat, gender Male, age 6 weeks
# measurement.setup: in vivo, po, 1000 mg/kg, […], tissue Plasma, route gavage, dose level High, time 28 day
readout.name: CRE (mg/dL)
Report as a plain number; the unit mg/dL is understood.

Q: Please give the measured CRE for this compound: O=C(N[C@H](CO)[C@H](O)c1ccc([N+](=O)[O-])cc1)C(Cl)Cl
Result: 0.2

Q: Request: CC(C)(S)[C@@H](N)C(=O)O
Result: 0.2

Q: Request: O=C(O)c1cccnc1
Result: 0.2

Q: Request: CCN1CCCC1CNC(=O)c1cc(S(N)(=O)=O)ccc1OC (centres undefined) [SULPIRIDE]
Result: 0.3

====

# Species on record: Rattus norvegicus
# assay.name: Open TG-GATES - Regimen: Single
# Assay type: toxicity, organism-based, Sprague-Dawley
# Design: regimen Single, gender Male, age 6 weeks
# measurement.setup: in vivo, po, 0 mg/kg, 3 h, tissue Plasma, route gavage, dose level Control
Give measured TG for each item. Keep answers brief.
Report as a plain number; the unit mg/dL is understood.

Q: Please give the measured TG for this compound: Oc1ncnc2[nH]ncc12
Result: 59.4

Q: Request: CC(=N)S [THIOACETAMIDE]
Result: 52

Q: Request: O=C(N[C@H](CO)[C@H](O)c1ccc([N+](=O)[O-])cc1)C(Cl)Cl
Result: 66.4

Q: Request: CCC(C)(C)C(=O)O[C@H]1C[C@@H](C)C=C2C=C[C@H](C)[C@H](CC[C@@H]3C[C@@H](O)CC(=O)O3)[C@H]21
Result: 63.6

====

Give measured K for each item. Keep answers brief.
# Organism: Rattus norvegicus
# assay.name: Open TG-GATES - Regimen: Daily Repeat
# Type: toxicity, organism-based, Sprague-Dawley
# Set-up: regimen Daily Repeat, gender Male, age 6 weeks
# measurement.setup: in vivo, po, 1000 mg/kg, […], tissue Plasma, route gavage, dose level High, time 28 day
Report as a plain number; the unit meq/L is understood.

Q: Please give the measured K for this compound: CCN1CCCC1CNC(=O)c1cc(S(N)(=O)=O)ccc1OC (centres undefined) [SULPIRIDE]
Result: 3.9

Q: Request: O=C(N[C@H](CO)[C@H](O)c1ccc([N+](=O)[O-])cc1)C(Cl)Cl [CHLORAMPHENICOL]
Result: 3.6

Q: Request: CC(C)(S)[C@@H](N)C(=O)O [PENICILLAMINE]
Result: 4

Q: Request: O=C(O)c1cccnc1 [NIACIN]
Result: 4.2

====

# Species on record: Rattus norvegicus
# assay.name: Open TG-GATES - Regimen: Daily Repeat
# Format: toxicity, organism-based, Sprague-Dawley
# Parameters: regimen Daily Repeat, gender Male, age 6 weeks
# measurement.setup: in vivo, po, 1000 mg/kg, […], tissue Plasma, route gavage, dose level High, time 28 day
readout.name: IP (mg/dL)
Report as a plain number; the unit mg/dL is understood.

Q: Please give the measured IP for this compound: CCN1CCCC1CNC(=O)c1cc(S(N)(=O)=O)ccc1OC (centres undefined) [SULPIRIDE]
Result: 7.2

Q: Request: CC(C)(S)[C@@H](N)C(=O)O
Result: 6.5

Q: Request: O=C(O)c1cccnc1
Result: 7.1

Q: Request: O=C(N[C@H](CO)[C@H](O)c1ccc([N+](=O)[O-])cc1)C(Cl)Cl
Result: 6.3

====

Give measured RALB for each item. Keep answers brief.
# Species on record: Rattus norvegicus
# assay.name: Open TG-GATES - Regimen: Single
# Format: toxicity, organism-based, Sprague-Dawley
# Parameters: regimen Single, gender Male, age 6 weeks
# measurement.setup: in vivo, po, 0 mg/kg, 9 h, tissue Plasma, route gavage, dose level Control
Report as a plain number; the unit g/dL is understood.

Q: Please give the measured RALB for this compound: CN1C(=O)OC(C)(C)C1=O [TRIMETHADIONE]
Result: 2.5

Q: Request: C[C@]12CCC(=O)C=C1CC[C@@H]1[C@@H]2CC[C@@]2(C)[C@H]1CC[C@]2(C)O [METHYLTESTOSTERONE]
Result: 2.5

Q: Request: CCc1oc2ccccc2c1C(=O)c1cc(I)c(O)c(I)c1 [BENZIODARONE]
Result: 3.7

Q: Request: CC(=O)Oc1cc(C(C)C)c(OCCN(C)C)cc1C [MOXISYLYTE]
Result: 3

Q: Request: O=C(O)c1cccnc1 [NIACIN]
Result: 3

Q: Request: O=C(N[C@H](CO)[C@H](O)c1ccc([N+](=O)[O-])cc1)C(Cl)Cl [CHLORAMPHENICOL]
Result: 2.5

Q: Request: CCN1CCCC1CNC(=O)c1cc(S(N)(=O)=O)ccc1OC (stereo unspecified) [SULPIRIDE]
Result: 2.5

Q: Request: Oc1ncnc2[nH]ncc12 [ALLOPURINOL]
Result: 3.8

Q: Request: C[C@](N)(Cc1ccc(O)c(O)c1)C(=O)O [METHYLDOPA]
Result: 2.4

Q: Request: Nc1nc(N)c2nc(-c3ccccc3)c(N)nc2n1
Result: 2.5

Q: Request: CC(=N)S [THIOACETAMIDE]
Result: 3.7

Q: Request: CC(C)C(=O)Nc1ccc([N+](=O)[O-])c(C(F)(F)F)c1 [FLUTAMIDE]
Result: 3.3

Q: Request: CCSCC[C@H](N)C(=O)O [ETHIONINE]
Result: 3.3

Q: Request: CC(C)(S)[C@@H](N)C(=O)O [PENICILLAMINE]
Result: 2.6

Q: Request: C#C[C@]1(O)CC[C@H]2[C@@H]3CCc4cc(O)ccc4[C@H]3CC[C@@]21C [ETHINYL ESTRADIOL]
Result: 2.5

Q: Request: CCC(C)(C)C(=O)O[C@H]1C[C@@H](C)C=C2C=C[C@H](C)[C@H](CC[C@@H]3C[C@@H](O)CC(=O)O3)[C@H]21 [SIMVASTATIN]
Result: 3.7

====

# Organism: Rattus norvegicus
# assay.name: Open TG-GATES - Regimen: Single
# Type: toxicity, organism-based, Sprague-Dawley
# Design: regimen Single, gender Male, age 6 weeks
# measurement.setup: in vivo, po, 0 mg/kg, 9 h, tissue Blood, route gavage, dose level Control
Give measured APTT for each item. Keep answers brief.
Report as a plain number; the unit s is understood.

Q: Please give the measured APTT for this molecule: CC(C)(S)[C@@H](N)C(=O)O
Result: 16.9

Q: Request: CCc1oc2ccccc2c1C(=O)c1cc(I)c(O)c(I)c1
Result: 18

Q: Request: CCN1CCCC1CNC(=O)c1cc(S(N)(=O)=O)ccc1OC (stereo not drawn) [SULPIRIDE]
Result: 16.9

Q: Request: Oc1ncnc2[nH]ncc12
Result: 16.6

Q: Request: C[C@](N)(Cc1ccc(O)c(O)c1)C(=O)O
Result: 17.4

Q: Request: CC(C)C(=O)Nc1ccc([N+](=O)[O-])c(C(F)(F)F)c1 [FLUTAMIDE]
Result: 18.4

Q: Request: CCSCC[C@H](N)C(=O)O
Result: 19

Q: Request: CN1C(=O)OC(C)(C)C1=O
Result: 19.5

Q: Request: Nc1nc(N)c2nc(-c3ccccc3)c(N)nc2n1
Result: 16.3

Q: Request: C[C@]12CCC(=O)C=C1CC[C@@H]1[C@@H]2CC[C@@]2(C)[C@H]1CC[C@]2(C)O
Result: 16.8

Q: Request: CC(=O)Oc1cc(C(C)C)c(OCCN(C)C)cc1C
Result: 20.8

Q: Request: CC(=N)S [THIOACETAMIDE]
Result: 16.2

Q: Request: O=C(N[C@H](CO)[C@H](O)c1ccc([N+](=O)[O-])cc1)C(Cl)Cl
Result: 16.3
